experiment: BHET released, HPLC; higher = more BHET released; extreme values may be limits of the assay; conditions: PET substrate: aFilm; 60 °C; pH 6.5; 24 h
reported.metric: BHET released

# input sequence: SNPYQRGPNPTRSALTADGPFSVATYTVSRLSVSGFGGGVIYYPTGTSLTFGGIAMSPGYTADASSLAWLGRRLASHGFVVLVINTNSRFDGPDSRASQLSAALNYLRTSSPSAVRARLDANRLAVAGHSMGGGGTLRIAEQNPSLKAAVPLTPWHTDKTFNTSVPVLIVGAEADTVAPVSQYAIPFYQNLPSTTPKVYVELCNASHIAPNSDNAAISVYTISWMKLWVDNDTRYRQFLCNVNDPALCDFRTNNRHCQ [LCC-A2] ; wanted: its BHET released
0 mM

# input sequence: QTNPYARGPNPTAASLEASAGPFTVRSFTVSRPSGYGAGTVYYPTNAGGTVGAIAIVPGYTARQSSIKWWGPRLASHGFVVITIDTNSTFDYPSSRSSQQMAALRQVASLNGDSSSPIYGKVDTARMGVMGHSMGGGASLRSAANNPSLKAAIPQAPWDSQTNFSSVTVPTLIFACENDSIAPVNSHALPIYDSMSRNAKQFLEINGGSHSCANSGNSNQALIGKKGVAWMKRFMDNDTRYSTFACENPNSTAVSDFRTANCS [DuraPETase] ; wanted: its BHET released
0 mM

# input sequence: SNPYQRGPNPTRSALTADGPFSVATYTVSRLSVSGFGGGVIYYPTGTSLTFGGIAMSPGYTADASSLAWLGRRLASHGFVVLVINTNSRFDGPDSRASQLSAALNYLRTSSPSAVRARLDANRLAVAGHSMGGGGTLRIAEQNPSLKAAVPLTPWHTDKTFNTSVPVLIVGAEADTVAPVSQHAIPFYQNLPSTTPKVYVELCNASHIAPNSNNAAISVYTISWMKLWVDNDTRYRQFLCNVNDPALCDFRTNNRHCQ [LCC-ICCG] ; wanted: its BHET released
0.0136 mM
